Biological target: various mutants of kinase EGFR (BaF3 cell lines stably transfected with kinase) (Homo sapiens, UniProt P00533, T790M, form not given)
Construct: other: BaF3 cells stably transfected with EGFR Δ19Del/T790M; MTS, 48 h; other: BaF3 cell line stably transfected with EGFR Δ19Del/T790M; MTS, 48
Sequence (P00533 with tags, fused parts or gaps DEL746-750/T790M, form open): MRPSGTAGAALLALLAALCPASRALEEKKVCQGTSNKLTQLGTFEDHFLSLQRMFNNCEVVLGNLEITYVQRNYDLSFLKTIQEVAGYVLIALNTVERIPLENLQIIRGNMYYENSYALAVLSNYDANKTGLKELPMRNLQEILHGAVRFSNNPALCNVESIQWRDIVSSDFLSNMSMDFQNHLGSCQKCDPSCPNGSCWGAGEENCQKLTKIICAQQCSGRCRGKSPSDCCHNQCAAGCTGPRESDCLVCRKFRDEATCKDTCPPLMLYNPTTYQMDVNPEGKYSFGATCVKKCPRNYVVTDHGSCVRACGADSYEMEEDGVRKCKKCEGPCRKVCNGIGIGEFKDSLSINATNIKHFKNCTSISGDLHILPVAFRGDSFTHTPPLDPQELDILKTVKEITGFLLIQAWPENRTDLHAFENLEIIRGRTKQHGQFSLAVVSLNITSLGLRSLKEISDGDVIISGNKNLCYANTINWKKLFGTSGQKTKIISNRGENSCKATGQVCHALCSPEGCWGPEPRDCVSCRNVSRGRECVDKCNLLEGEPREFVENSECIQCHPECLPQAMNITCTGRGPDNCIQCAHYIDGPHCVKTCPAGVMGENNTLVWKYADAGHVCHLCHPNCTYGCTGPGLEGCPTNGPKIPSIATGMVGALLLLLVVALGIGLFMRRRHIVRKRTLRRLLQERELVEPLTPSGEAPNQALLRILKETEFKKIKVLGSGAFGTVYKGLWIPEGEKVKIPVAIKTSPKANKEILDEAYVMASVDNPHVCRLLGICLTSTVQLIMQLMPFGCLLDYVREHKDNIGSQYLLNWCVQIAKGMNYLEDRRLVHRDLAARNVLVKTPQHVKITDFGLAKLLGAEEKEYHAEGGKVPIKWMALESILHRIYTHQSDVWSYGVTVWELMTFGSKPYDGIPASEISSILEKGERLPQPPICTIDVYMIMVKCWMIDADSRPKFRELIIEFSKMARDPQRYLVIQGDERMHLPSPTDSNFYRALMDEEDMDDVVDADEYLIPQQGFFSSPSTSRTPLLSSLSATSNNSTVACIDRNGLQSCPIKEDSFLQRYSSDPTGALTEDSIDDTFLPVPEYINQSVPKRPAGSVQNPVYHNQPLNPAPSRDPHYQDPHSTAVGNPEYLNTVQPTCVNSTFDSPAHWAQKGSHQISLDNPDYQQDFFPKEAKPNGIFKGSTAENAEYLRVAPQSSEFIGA
Test: Growth inhibitory activity of compounds on BaF3 cell lines stably transfected with kinase (MTS, 48 h)
Type: cell-based
Settings: BaF3 cell line stably transfected with EGFR Δ19Del/T790M, read-out: Δ19Del/ T790M growth inhibitory activity IC50
Experimental: The activity of compounds against various mutants of kinase EGFR was evaluated by their effect of inhibiting growth of BaF3 cell lines stably transfected with kinase. The specific test method was given as follows: […] 3) Compound test: cells were incubated into a 96-well culture plate, the volume of cytosol was 90 µL, and then 10 µL of the compound at each gradient concentration was added. […] OD values at 490 nm were measured by a microplate reader (VARIOSKAN FLASH, Thermo). […]
Observation type: IC50

# Record smiles, IC50
measured = [
    ("COc1ccc(N2CCC(O)CC2)cc1Nc1ncc(Cl)c(Nc2ccc3nccnc3c2N(C2CC2)S(C)(=O)=O)n1", "≤ 50 nM"),
    ("COc1cc(N2CCC(N3CCN(C)CC3)CC2)c(C)cc1Nc1nc(Nc2ccc3nccnc3c2N(C)S(C)(=O)=O)c2occc2n1", "50 to 500 nM"),
    ("CCc1cc(Nc2ncc(Cl)c(Nc3ccc4nccnc4c3N(C)S(C)(=O)=O)n2)c(OC)cc1C(=O)N1CCC(N2CCN(C)CC2)CC1", "50 to 500 nM"),
]

# return recorded IC50 for entry "CCn1cc(Nc2ncc(Br)c(Nc3ccc4nccnc4c3N(C)S(C)(=O)=O)n2)cn1" 50 to 500 nM

# return recorded IC50 for entry "COc1ccc(N2CCC(O)CC2)cc1Nc1ncc(Br)c(Nc2ccc3nccnc3c2N(C)S(=O)(=O)C2CC2)n1" ≤ 50 nM
